Test target: Phosphatidylinositol 4,5-bisphosphate 3-kinase catalytic subunit alpha isoform (Homo sapiens)
Sequence (P42336 whole entry, canonical isoform): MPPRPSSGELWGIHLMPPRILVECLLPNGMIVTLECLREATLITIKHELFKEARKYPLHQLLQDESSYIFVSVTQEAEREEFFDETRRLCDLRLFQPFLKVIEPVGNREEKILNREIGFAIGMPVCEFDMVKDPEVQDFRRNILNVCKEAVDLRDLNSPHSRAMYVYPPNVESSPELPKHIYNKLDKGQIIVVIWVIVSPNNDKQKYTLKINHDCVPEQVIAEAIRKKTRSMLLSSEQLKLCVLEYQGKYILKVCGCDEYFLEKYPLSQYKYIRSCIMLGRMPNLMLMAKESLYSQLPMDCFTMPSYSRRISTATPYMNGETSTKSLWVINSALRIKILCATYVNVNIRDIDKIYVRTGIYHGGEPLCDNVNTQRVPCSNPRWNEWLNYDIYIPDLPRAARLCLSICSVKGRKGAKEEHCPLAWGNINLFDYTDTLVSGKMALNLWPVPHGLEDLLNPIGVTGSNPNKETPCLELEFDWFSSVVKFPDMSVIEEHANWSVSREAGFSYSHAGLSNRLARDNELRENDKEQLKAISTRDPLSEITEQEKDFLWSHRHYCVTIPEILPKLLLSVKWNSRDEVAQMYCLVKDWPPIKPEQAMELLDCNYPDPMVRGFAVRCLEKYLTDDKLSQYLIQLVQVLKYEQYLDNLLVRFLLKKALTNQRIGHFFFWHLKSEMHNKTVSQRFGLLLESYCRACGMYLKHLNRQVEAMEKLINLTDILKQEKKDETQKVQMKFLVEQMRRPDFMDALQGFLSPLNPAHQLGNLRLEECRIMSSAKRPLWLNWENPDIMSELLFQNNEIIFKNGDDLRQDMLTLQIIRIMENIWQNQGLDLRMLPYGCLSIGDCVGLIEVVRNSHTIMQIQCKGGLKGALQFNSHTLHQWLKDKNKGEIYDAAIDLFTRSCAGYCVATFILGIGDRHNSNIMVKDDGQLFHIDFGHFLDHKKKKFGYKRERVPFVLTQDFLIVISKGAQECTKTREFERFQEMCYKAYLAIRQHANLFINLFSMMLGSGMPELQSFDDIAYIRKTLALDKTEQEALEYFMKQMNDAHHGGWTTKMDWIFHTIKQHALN
Procedure text: Inhibition of PI3Kalpha (unknown origin) by kinase profiling assay
Reported property: pIC50
Scale for pIC50: -log10 of concentration given in mol/L; no unit attached.

>>> df
                    structure_smiles_string  reported_property  result_value
0  CC(C)c1cc(C(=O)N2CCc3c(sc4nc(-c5ccc(NC(=O)Nc6cccc(Cl)c6)cc5)nc(N5CCOCC5)c34)C2)c(O)cc1O              pIC50          5.44
1  CC(C)c1cc(C(=O)N2CCc3c(sc4nc(-c5ccc(NC(=O)Nc6ccc(F)c(Cl)c6)cc5)nc(N5CCOCC5)c34)C2)c(O)cc1O              pIC50          5.30
2  CC(C)c1cc(C(=O)N2CCc3c(sc4nc(-c5ccc(NC(=O)Nc6cccc(C(F)(F)F)c6)cc5)nc(N5CCOCC5)c34)C2)c(O)cc1O              pIC50          5.61

Lookup: For the compound shown here, "COc1ccc(-c2ccc3c(N4CCOC[C@@H]4C)nc(N4CCOC[C@@H]4C)nc3n2)cc1CO" , give the reported pIC50.
Found: 5.35

Lookup: For "CC(C)c1cc(C(=O)N2CCc3c(sc4nc(-c5ccc(NC(=O)Nc6cc(Cl)cc(Cl)c6)cc5)nc(N5CCOCC5)c34)C2)c(O)cc1O" , what is its reported pIC50?
Found: 5.25
